Quick reference: mass density of the listed items.
settings: 378.15 K; 3000 kPa; Liquid
Numeric only. Scale: kg/m3

{"Compound": "CCCOC(C)=O [propyl ethanoate]", "mass density, kg/m3": 793}
{"Compound": "CCCCCOC(C)=O [pentyl ethanoate]", "mass density, kg/m3": 794.4}
{"Compound": "CCCCOC(C)=O [butyl ethanoate]", "mass density, kg/m3": 795.2}

Could you now look at the following compound, please?
Prompt line: mass density for CCOC(C)=O [ethyl acetate] ?
Response line: 795.8

====

This listing pairs compounds with measured mass density.
conditions: 358.15 K; 2000 kPa; Liquid
Numbers after ± are expanded uncertainties.
Please answer using the number first and the unit second.

Answered cases to consult:
{"Compound": "CCCCOC(C)=O [butyl ethanoate]", "mass density": "813.9 ± 3.4 kg/m3"}
{"Compound": "CCCCCOC(C)=O [pentyl ethanoate]", "mass density": "813.4 ± 3.5 kg/m3"}
{"Compound": "CCCOC(C)=O [propyl ethanoate]", "mass density": "814.4 ± 3.5 kg/m3"}

In the following, a different compound is considered.
Prompt line: Item CCOC(C)=O [ethyl acetate] has what recorded mass density?
Response line: 820 ± 3.4 kg/m3

====

conditions: 353.15 K; 2000 kPa; Liquid
Known mass density of a selection of compounds
Write the number in kg/m3 without appending the unit.

Recorded mass density, per entry:
{"Compound": "CCCCOC(C)=O [butyl ethanoate]", "mass density / kg/m3": 821.7}
{"Compound": "CCCOC(C)=O [propyl ethanoate]", "mass density / kg/m3": 822.6}

Prompt line: Reported mass density for CCOC(C)=O [ethyl acetate] : what is it?
Response line: 826

Prompt line: Name the reported mass density value associated with the compound CCCCCOC(C)=O [pentyl ethanoate]
Response line: 821.1

====

Listed molecules paired with reported mass density
settings: 338.15 K; 1000 kPa; Liquid
Expressed in kg/m3, but write only the number.

Please review the following examples before continuing.
{"Molecule": "CCCCCOC(C)=O [pentyl ethanoate]", "Quantity Name": "mass density", "Observed": 834}
{"Molecule": "CCOC(C)=O [ethyl acetate]", "Quantity Name": "mass density", "Observed": 845.4}
{"Molecule": "CCCOC(C)=O [propyl ethanoate]", "Quantity Name": "mass density", "Observed": 838}

From here, focus on the item given below.
Prompt line: Give its mass density value. Item: CCCCOC(C)=O [butyl ethanoate]
Response line: 835.6

====

details: 298.15 K; 35000 kPa; Liquid
± gives the expanded uncertainty stated by the source.
Quantity Name: mass density

Example results:
{"Molecule": "CCOC(C)=O [ethyl acetate]", "Quantity Name": "mass density", "Observed": "926.3 ± 7.3 kg/m3"}
{"Molecule": "CCCOC(C)=O [propyl ethanoate]", "Quantity Name": "mass density", "Observed": "911.7 ± 7.5 kg/m3"}
{"Molecule": "CCCCOC(C)=O [butyl ethanoate]", "Quantity Name": "mass density", "Observed": "903.7 ± 7.3 kg/m3"}

Prompt line: // returns reported mass density for input CCCCCOC(C)=O [pentyl ethanoate]
Response line: 897.9 ± 7.5 kg/m3

====

conditions: 303.15 K; 30000 kPa; Liquid
# key: entry, value: mass density
// return numeric value only (unit: kg/m3, not printed)

{"Molecule": "CCCCOC(C)=O [butyl ethanoate]", "mass density / kg/m3": 894.4}
{"Molecule": "CCOC(C)=O [ethyl acetate]", "mass density / kg/m3": 915.9}
{"Molecule": "CCCCCOC(C)=O [pentyl ethanoate]", "mass density / kg/m3": 889.4}

Next, consider the following molecule.
Prompt line: Fill in the blank: the reported mass density of CCCOC(C)=O [propyl ethanoate] is ____.
Response line: 902

====

settings: 348.15 K; 1000 kPa; Liquid
Quantity Name: mass density (kg/m3)
// units = kg/m3; emit number, no label

{"Compound": "CCOC(C)=O [ethyl acetate]", "Observed": 830.5}
{"Compound": "CCCCCOC(C)=O [pentyl ethanoate]", "Observed": 824.6}
{"Compound": "CCCOC(C)=O [propyl ethanoate]", "Observed": 826.8}

Prompt line: Quick one: mass density for CCCCOC(C)=O [butyl ethanoate] ?
Response line: 825.4

====

conditions: 333.15 K; 20000 kPa; Liquid
Quantity Name: mass density (kg/m3)
Answer in kg/m3, number only, no unit symbol.

{"Compound": "CCCCOC(C)=O [butyl ethanoate]", "mass density [kg/m3]": 859.3}
{"Compound": "CCCCCOC(C)=O [pentyl ethanoate]", "mass density [kg/m3]": 856}
{"Compound": "CCOC(C)=O [ethyl acetate]", "mass density [kg/m3]": 873.8}

Prompt line: What mass density value was documented for this compound, CCCOC(C)=O [propyl ethanoate] ?
Response line: 863.9

====

conditions: 323.15 K; 5000 kPa; Liquid
Items are presented alongside their recorded mass density.
Your answer should be a plain number; it is taken to be in kg/m3.

{"Compound": "CCCCCOC(C)=O [pentyl ethanoate]", "mass density [kg/m3]": 851.7}
{"Compound": "CCCOC(C)=O [propyl ethanoate]", "mass density [kg/m3]": 859}
{"Compound": "CCOC(C)=O [ethyl acetate]", "mass density [kg/m3]": 868.6}

Next compound, please.
Prompt line: Find the recorded mass density belonging to CCCCOC(C)=O [butyl ethanoate] and report it.
Response line: 854.6

====

conditions: 313.15 K; 25000 kPa; Liquid
Quantity Name: mass density (kg/m3)
Provide only the numeric value, understood in kg/m3.

Check out these entries, answers already filled in.
{"Molecule": "CCOC(C)=O [ethyl acetate]", "mass density (kg/m3)": 899.8}
{"Molecule": "CCCCOC(C)=O [butyl ethanoate]", "mass density (kg/m3)": 881}
{"Molecule": "CCCOC(C)=O [propyl ethanoate]", "mass density (kg/m3)": 887.6}

Prompt line: May I ask what mass density has been recorded for CCCCCOC(C)=O [pentyl ethanoate] ?
Response line: 876.4

====

Catalogue of compounds with associated mass density
conditions: 383.15 K; 10000 kPa; Liquid
# number only, unit kg/m3 dropped from output

Some solved entries appear below for comparison.
{"Compound": "CCCCCOC(C)=O [pentyl ethanoate]", "Observed": 800.5}
{"Compound": "CCCOC(C)=O [propyl ethanoate]", "Observed": 799.2}
{"Compound": "CCOC(C)=O [ethyl acetate]", "Observed": 802.4}

Here's the next entry for you.
Prompt line: What value of mass density has been reported for the following compound? CCCCOC(C)=O [butyl ethanoate]
Response line: 800.1

====

details: 383.15 K; 3000 kPa; Liquid
Quantity Name: mass density (kg/m3)
Write the answer as a number in kg/m3, unit excluded.

Example compounds with recorded mass density:
{"Compound": "CCCCOC(C)=O [butyl ethanoate]", "Quantity Unit": "kg/m3", "mass density": 789.9}
{"Compound": "CCCCCOC(C)=O [pentyl ethanoate]", "Quantity Unit": "kg/m3", "mass density": 791.1}
{"Compound": "CCOC(C)=O [ethyl acetate]", "Quantity Unit": "kg/m3", "mass density": 789.1}

Lab note: next compound to report on.
Prompt line: Field request: mass density | item: CCCOC(C)=O [propyl ethanoate]
Response line: 787.3

====

conditions: 368.15 K; 10000 kPa; Liquid
This section presents molecules with their documented mass density values.
Please reply with the bare figure in kg/m3 and do not write the unit itself.

{"Molecule": "CCCCOC(C)=O [butyl ethanoate]", "Quantity Unit": "kg/m3", "Observed": 814.3}
{"Molecule": "CCCCCOC(C)=O [pentyl ethanoate]", "Quantity Unit": "kg/m3", "Observed": 813.4}
{"Molecule": "CCCOC(C)=O [propyl ethanoate]", "Quantity Unit": "kg/m3", "Observed": 814.6}

Now look at this entry.
Prompt line: Quick check: mass density of CCOC(C)=O [ethyl acetate] ?
Response line: 820.2

====

mass density values for the compounds below.
details: 323.15 K; 1000 kPa; Liquid
± gives the expanded uncertainty stated by the source.

{"Compound": "CCOC(C)=O [ethyl acetate]", "mass density": "864 ± 3.2 kg/m3"}
{"Compound": "CCCOC(C)=O [propyl ethanoate]", "mass density": "854.8 ± 3.4 kg/m3"}
{"Compound": "CCCCCOC(C)=O [pentyl ethanoate]", "mass density": "847.7 ± 3.4 kg/m3"}

Now for another entry.
Prompt line: What value of mass density has been reported for the following compound? CCCCOC(C)=O [butyl ethanoate]
Response line: 851 ± 3.3 kg/m3

====

Quick reference: mass density of the listed items.
details: 338.15 K; 5000 kPa; Liquid
± gives the expanded uncertainty stated by the source.

Here's what some known entries look like.
{"Compound": "CCCCCOC(C)=O [pentyl ethanoate]", "mass density": "838.1 ± 3.9 kg/m3"}
{"Compound": "CCCCOC(C)=O [butyl ethanoate]", "mass density": "840.1 ± 3.7 kg/m3"}
{"Compound": "CCCOC(C)=O [propyl ethanoate]", "mass density": "842.8 ± 3.9 kg/m3"}

We now examine a further compound.
Prompt line: # mass density lookup, item CCOC(C)=O [ethyl acetate]
Response line: 850.8 ± 3.7 kg/m3
